meta.source: PubChem BioAssay AID2567

- SYSTEM UNDER TEST: Neuropeptide S receptor (Homo sapiens)
- MEASUREMENT NOTES: Confirmation Concentration-Response Assay for Antagonists of the Neuropeptide S Receptor: Calcium Signal Transduction, SAR for Probe
- CONDITION LABEL: CHO-NPSR cells, NPS-induced calcium fluorescence, FDSS; series mostly up to 19.3 µM
Results filed as inconclusive are left out. Active and inactive are the calls of the source. The call rests on the fitted dose curve; in most records, active means well fitted antagonist curve with a large enough effect in the main read-out, with a control signal flat; inconclusive means small, poorly fitted or top-dose-only effect; inactive means no such curve, though single readings can be large or run the other way.
Hello, when you answer, please use one of the following outcomes: label 1 = active, label 0 = inactive

Which outcome did this test record for the compound COc1ccc(C2c3c(ncn(CCCc4ccccc4)c3=N)Oc3ccc4ccccc4c32)cc1OC (centres undefined) ?
label 0

---
Which outcome did this test record for the compound CCCCCN1C=CC=C/C1=C\C=C(C#N)C#N ?
label 0

Which outcome did this test record for the compound COc1cccc(C2c3c(ncn(-c4cccc(Br)c4)c3=N)Oc3ccc4ccccc4c32)c1 (centres undefined) ?
label 1

Which outcome did this test record for the compound COc1cccc(C2c3c(ncn(-c4ccc(C#N)cc4)c3=N)Oc3ccc4ccccc4c32)c1 (centres undefined) ?
label 1

Which outcome did this test record for the compound Cc1c(P(=S)(c2ccccc2)c2ccccc2)c2ccccc2n1Cc1ccccc1 ?
label 0

Which outcome did this test record for the compound COc1cccc(C2c3c(ncn(-c4ccc(C)cc4)c3=N)Oc3ccc4ccccc4c32)c1 (centres undefined) ?
label 1

Which outcome did this test record for the compound COc1ccc2c(c1)Oc1ncn(CCN3CCOCC3)c(=N)c1C2c1ccc(OC)c(OC)c1 (centres undefined) ?
label 1

Which outcome did this test record for the compound COc1cccc(C2c3c(ncn(-c4ccccc4-c4ccccc4)c3=N)Oc3ccc4ccccc4c32)c1 (centres undefined) ?
label 0

Which outcome did this test record for the compound COc1cccc(C2c3c(ncn(-c4ccccc4OC)c3=N)Oc3ccc4ccccc4c32)c1 (centres undefined) ?
label 1

Which outcome did this test record for the compound COc1cccc(C2c3c(ncn(Cc4cccs4)c3=N)Oc3ccc4ccccc4c32)c1 (centres undefined) ?
label 1

Which outcome did this test record for the compound COc1ccc(C2c3c(N)nc(Cc4ccccc4)nc3Oc3ccc4ccccc4c32)cc1OC (centres undefined) ?
label 0

Which outcome did this test record for the compound COc1ccc(C2c3c(nc(Cc4ccccc4)[nH]c3=O)Oc3ccc4ccccc4c32)cc1OC (centres undefined) ?
label 0

Which outcome did this test record for the compound COc1cccc(C2c3c(ncn(-c4ccc5c(c4)OCO5)c3=N)Oc3ccc4ccccc4c32)c1 (centres undefined) ?
label 1

Which outcome did this test record for the compound COc1cccc(C2c3c(ncn(-c4ccccc4C)c3=N)Oc3ccc4ccccc4c32)c1 (centres undefined) ?
label 1

Which outcome did this test record for the compound Cc1c(P(=S)(c2ccccc2)c2ccccc2)c2ccccc2n1CCc1ccccc1 ?
label 0

Which outcome did this test record for the compound O=[N+]([O-])c1ccc(-c2nc(C(Cl)Cl)c3ccccc3n2)cc1 ?
label 0

Which outcome did this test record for the compound NC(=S)N/N=C/c1ncc(C(F)(F)F)cc1Cl ?
label 0

Which outcome did this test record for the compound CCOC(=O)c1cnc(-n2nc(C)cc2C)nc1Nc1ccc(C)cc1 ?
label 0

Which outcome did this test record for the compound COc1cccc(C2c3c(ncn(-c4ccccc4C#N)c3=N)Oc3ccc4ccccc4c32)c1 (centres undefined) ?
label 1
